Each entry below carries its reported Tumor-to-Spleen ratio.
# Tested on: LNCaP xenografts
# method: Biodistribution in LNCaP xenografts
# Format: in vivo, mice
# test context: 1 h after injection
Please state the value as a number alone, without comment.

- compound: "O=C([O-])CN(CCN(CC(=O)[O-])Cc1cc(CCC(=O)NCCCCCC(=O)NCCCC[C@H](NC(=O)N[C@@H](CCC(=O)O)C(=O)O)C(=O)O)ccc1[O-])Cc1cc(CCC(=O)O)ccc1[O-].[68Ga+3].[OH3+] [[^68Ga]Ga-PSMA-11, reference compound]"
  Tumor-to-Spleen ratio: 1.69
- compound: "O=C(O)CC[C@H](NC(=O)N[C@@H](CCCCNC(=O)[C@H](Cc1ccc2ccccc2c1)NC(=O)c1ccc(CNC(=O)[C@H](CCC(=O)O)NC(=O)[C@H](CCC(=O)O)NC(=O)c2ccc([18F])nc2)cc1)C(=O)O)C(=O)O [[^18F]PSMA-1007, reference compound]"
  Tumor-to-Spleen ratio: 0.89
- compound: "O=C([O-])CN1CCN(CC(=O)O)CCN(CC(=O)[O-])CCN(C(CCC(=O)N[C@H](Cc2ccc(O)c(I)c2)C(=O)N[C@H](Cc2ccccc2)C(=O)N[C@H](CCCCNC(=O)CCCCCCC(=O)NCCCC[C@H](NC(=O)N[C@@H](CCC(=O)O)C(=O)O)C(=O)O)C(=O)O)C(=O)O)CC1.[61Cu+2] (stereo partly drawn) [[^61Cu]Cu-DOTAGA-PSMA-I&T, DOTAGA-(l-y)fk(sub-KuE)]"
  Tumor-to-Spleen ratio: 1.37

Continue with the compound presented below.
# input What value of Tumor-to-Spleen ratio has been reported for the following compound? O=C([O-])CN1CCN(CC(=O)[O-])CCN(C(CCC(=O)N[C@H](Cc2ccc(O)c(I)c2)C(=O)N[C@H](Cc2ccccc2)C(=O)N[C@H](CCCCNC(=O)CCCCCCC(=O)NCCCC[C@H](NC(=O)N[C@@H](CCC(=O)O)C(=O)O)C(=O)O)C(=O)O)C(=O)O)CC1.[61Cu+2] (stereo partly drawn) [[^61Cu]Cu-NODAGA-PSMA-I&T, NODAGA-(l-y)fk(sub-KuE)]
# output 2.86

* * *

# System: LNCaP xenografts
# method: Biodistribution in LNCaP xenografts
# Format: in vivo, mice
# test context: 1 h after injection
reported endpoint: Tumor-to-Salivary glands ratio
Form field (numeric): enter value without unit.

# input Using the record for O=C([O-])CN1CCN(CC(=O)O)CCN(CC(=O)[O-])CCN(C(CCC(=O)N[C@H](Cc2ccc(O)c(I)c2)C(=O)N[C@H](Cc2ccccc2)C(=O)N[C@H](CCCCNC(=O)CCCCCCC(=O)NCCCC[C@H](NC(=O)N[C@@H](CCC(=O)O)C(=O)O)C(=O)O)C(=O)O)C(=O)O)CC1.[61Cu+2] (stereo partly drawn) [[^61Cu]Cu-DOTAGA-PSMA-I&T, DOTAGA-(l-y)fk(sub-KuE)] , report its Tumor-to-Salivary glands ratio.
# output 1.14

# input So what does the record say about Tumor-to-Salivary glands ratio for O=C(O)CC[C@H](NC(=O)N[C@@H](CCCCNC(=O)[C@H](Cc1ccc2ccccc2c1)NC(=O)c1ccc(CNC(=O)[C@H](CCC(=O)O)NC(=O)[C@H](CCC(=O)O)NC(=O)c2ccc([18F])nc2)cc1)C(=O)O)C(=O)O [[^18F]PSMA-1007, reference compound] ?
# output 4.12

# input Can you share its Tumor-to-Salivary glands ratio? I mean this compound: O=C([O-])CN1CCN(CC(=O)[O-])CCN(C(CCC(=O)N[C@H](Cc2ccc(O)c(I)c2)C(=O)N[C@H](Cc2ccccc2)C(=O)N[C@H](CCCCNC(=O)CCCCCCC(=O)NCCCC[C@H](NC(=O)N[C@@H](CCC(=O)O)C(=O)O)C(=O)O)C(=O)O)C(=O)O)CC1.[61Cu+2] (stereo partly drawn) [[^61Cu]Cu-NODAGA-PSMA-I&T, NODAGA-(l-y)fk(sub-KuE)]
# output 7.83

# input Look at this compound and give its reported Tumor-to-Salivary glands ratio. O=C([O-])CN(CCN(CC(=O)[O-])Cc1cc(CCC(=O)NCCCCCC(=O)NCCCC[C@H](NC(=O)N[C@@H](CCC(=O)O)C(=O)O)C(=O)O)ccc1[O-])Cc1cc(CCC(=O)O)ccc1[O-].[68Ga+3].[OH3+] [[^68Ga]Ga-PSMA-11, reference compound]
# output 6.72
